The origin of these recorded values is PubChem BioAssay.

Test: binders of probe aFSTL3 on microarray, primary screen, stem cell growth factor project, biochemical, small-molecule microarray, fluorescence 635/667 (AID 1064);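 further: measures binding of the biotinylated anti-FSTL3 antibody to printed compounds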
Details: higher = more signal
assay.endpoint: composite z-score

* COCCCNC(=O)[C@@]1(c2ccc([N+](=O)[O-])cc2)CC(=O)N(C2CCCCC2)[C@@H]1c1ccc(CO)cc1I | 0.234
* COCCCNC(=O)[C@@]1(CCC(=O)OC(C)(C)C)N=C(c2ccc(OCCCO)cc2)O[C@H]1c1ccccc1 | 0.593
* CN(C)CCCCNC(=O)[C@H]1C[C@H]2C(=O)N[C@@H](CCCCN(C)C)C(=O)N2[C@H]1c1ccc(O)cc1 | -0.162
* COC(=O)[C@@]1(Cc2ccc(F)cc2)[C@H]2c3cc(C(=O)N(C)C)n(Cc4ccsc4Br)c3C[C@H]2CN1C(=O)c1ccccc1 | 2.25
